B1: RIPK4 (parent)
chain: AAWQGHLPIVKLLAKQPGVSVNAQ

variants of: B1; test: protein stability index of a GFP-peptide fusion (GPS, HEK-293T) (PSI 1-6); higher = more stable; conditions: c terminus: a fixed tail appended;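 further: lentivirally expressed fusions sorted by FACS into six bins by GFP to DsRed ratio, PSI derived from sequencing read proportions per bin multiplied by bin number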
The reader will find reported protein stability index values listed item by item below.
Response field accepts a number only; no unit should be typed.

Worked examples follow.
L12R | 3.56
Q24G | 1.93
W3H | 3.06
A1N | 2.35
S20R | 2.97
A23L | 2.01

**Q:** Report protein stability index for `W3I`
**A:** 3.07
